- PROTOCOL NOTES: qHTS for Inhibitors of binding or entry into cells for Lassa Virus; also: nearly all actives have a fitted effect of over 50% in size
- CONDITION CONTEXT: Lassa virus pseudotype entry inhibition, cell reporter; series mostly up to 37.9 µM
Screen size: about 300,000 compounds; about 3,700 (1.2%) were called active. Another 20% or so got no clear call; they are omitted. Calls follow the shape of the full dose curve; tested in HEK293 cells. This excerpt belongs to a sample that is enriched for actives.
Valid outcomes are listed here; reply with one: YES = active, NO = inactive

Worked examples follow.
* COc1ccc(C(=O)Nc2cccc(/C=C(/CCC(=O)O)c3nc4ccccc4s3)c2)cc1 | NO
* O=C(c1ccc(N2CCOCC2)c([N+](=O)[O-])c1)N1CCN(c2ccccc2F)CC1 | NO
* O=C(c1ccccc1)N1CCN(C(=O)c2cc3nc(-c4ccccc4)cc(C(F)(F)F)n3n2)CC1 | YES
* Cc1ccccc1-n1c(SCC(=O)NCc2cccs2)nnc1-c1ccncc1 | NO
* Oc1cccc(CCc2ccccn2)c1 | NO

Per the assay record, what outcome was assigned to Cc1ccccc1NC(=S)N(CCCN1CCOCC1)Cc1cccs1 ?
NO

Given COc1cc(NC(=O)c2ccc(-c3csc(C)n3)cc2)c(OC)cc1Cl , state the outcome it received in this test.
NO

How did this test come out for Cc1ccccc1NC(=O)NNC(=O)OC(C)(C)C ?
NO

Kindly provide the recorded test outcome for the following compound: CCCOc1ccc(C(=O)C(CCC(CNCC)C(=O)c2ccc(OCCC)cc2)CNCC)cc1 (centres undefined)
YES
